Target: UniProt Q12809
Sequence (Q12809 whole entry): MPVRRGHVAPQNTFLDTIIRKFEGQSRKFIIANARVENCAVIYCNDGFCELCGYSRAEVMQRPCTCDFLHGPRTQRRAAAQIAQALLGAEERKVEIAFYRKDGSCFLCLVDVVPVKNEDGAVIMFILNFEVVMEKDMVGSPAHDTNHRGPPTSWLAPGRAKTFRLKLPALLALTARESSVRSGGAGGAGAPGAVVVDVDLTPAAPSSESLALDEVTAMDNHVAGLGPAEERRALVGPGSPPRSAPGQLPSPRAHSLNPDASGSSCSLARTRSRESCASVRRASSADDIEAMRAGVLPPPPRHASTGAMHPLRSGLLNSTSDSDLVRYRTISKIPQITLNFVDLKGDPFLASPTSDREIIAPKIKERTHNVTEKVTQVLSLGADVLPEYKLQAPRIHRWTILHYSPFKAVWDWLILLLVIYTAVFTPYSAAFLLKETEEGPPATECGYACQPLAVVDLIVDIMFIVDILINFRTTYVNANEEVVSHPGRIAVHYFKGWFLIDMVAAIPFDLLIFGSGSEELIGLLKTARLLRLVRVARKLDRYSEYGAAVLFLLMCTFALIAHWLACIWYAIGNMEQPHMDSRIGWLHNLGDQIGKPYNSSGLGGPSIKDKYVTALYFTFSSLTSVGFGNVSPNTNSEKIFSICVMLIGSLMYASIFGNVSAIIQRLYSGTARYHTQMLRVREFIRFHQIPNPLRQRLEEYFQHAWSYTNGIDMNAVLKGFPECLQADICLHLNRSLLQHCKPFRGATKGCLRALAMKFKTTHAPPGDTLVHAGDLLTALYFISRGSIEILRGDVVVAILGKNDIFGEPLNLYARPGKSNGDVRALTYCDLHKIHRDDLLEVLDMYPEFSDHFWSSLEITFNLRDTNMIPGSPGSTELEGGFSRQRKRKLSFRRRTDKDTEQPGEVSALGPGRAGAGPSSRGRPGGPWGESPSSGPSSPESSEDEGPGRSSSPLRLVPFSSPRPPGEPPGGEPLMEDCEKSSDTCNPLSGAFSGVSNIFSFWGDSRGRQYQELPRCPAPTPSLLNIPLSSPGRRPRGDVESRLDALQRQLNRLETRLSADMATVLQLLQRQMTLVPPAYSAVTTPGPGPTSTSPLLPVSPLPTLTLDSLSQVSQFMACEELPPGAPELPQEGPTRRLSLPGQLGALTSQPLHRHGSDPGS
Experiment: Inhibition of human ERG expressed in CHO cells by Ionworks electrophysiology method
Overview of reported pIC50 across a group of compounds:
Reminder that pIC50 is minus the log10 of a molar concentration.

Test smiles	Reported measurement
Cc1ccc([C@@H]2CN(C(=O)[C@H]3CC[C@H](CN)CC3)C[C@H]2c2ccc(C#N)cc2)cc1	4.92

*Q* Could you share which pIC50 value was measured for Cc1ccc(-c2ncc(OC[C@@H]3CCNC3)cc2-c2ccc(C#N)cc2)cc1 ?
*A* 5.49

====

Target: Amine oxidase [flavin-containing] B (Homo sapiens, UniProt P27338)
Sequence (P27338 whole entry): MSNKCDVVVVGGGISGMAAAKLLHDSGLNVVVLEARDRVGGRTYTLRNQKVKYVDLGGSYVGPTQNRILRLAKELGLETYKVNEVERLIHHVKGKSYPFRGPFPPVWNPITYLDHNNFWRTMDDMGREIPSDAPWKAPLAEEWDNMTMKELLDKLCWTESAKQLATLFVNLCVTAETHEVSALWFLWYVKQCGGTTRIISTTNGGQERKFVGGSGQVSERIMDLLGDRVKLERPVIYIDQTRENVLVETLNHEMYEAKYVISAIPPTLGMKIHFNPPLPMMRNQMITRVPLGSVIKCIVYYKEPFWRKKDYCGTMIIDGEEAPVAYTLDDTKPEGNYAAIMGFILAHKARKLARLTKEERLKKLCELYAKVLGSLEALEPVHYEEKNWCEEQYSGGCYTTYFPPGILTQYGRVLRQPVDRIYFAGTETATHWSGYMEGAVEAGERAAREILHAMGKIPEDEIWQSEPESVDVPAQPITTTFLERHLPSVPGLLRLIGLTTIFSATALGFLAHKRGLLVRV
Experiment: Inhibition of recombinant human MAO-B expressed in supersomes using kynuramine as substrate by LC-MS/MS analysis
pIC50: −log10 of the molar value.
Reported endpoint: pIC50

*Q* Can you look up pIC50 on Amine oxidase [flavin-containing] B (Homo sapiens, UniProt P27338) for Cc1ccc([C@@H]2CN(C(=O)[C@H]3CC[C@H](CN)CC3)C[C@H]2c2ccc(C#N)cc2)cc1 ?
*A* < 4.60

Where do the numbers come from? From ChEMBL document CHEMBL4043241.
